- Tested on: Plasmodium falciparum
- PROTOCOL DETAILS: Screen against P. falciparum Asexual Blood Stage (ABS), at 5uM
- Format: functional, Dd2
- CONDITION NOTES: tested at 5 uM
About 2,100 (3.2%) of roughly 65,000 compounds showed an effect of 50% or more. The median lay at about -52%. What follows is part of a selection rich in strong results, with near analogues and random picks from the rest.
Criterion: INHIBITION meeting or surpassing -70%. Met: satisfied. Not met: not satisfied.

>  <MOLECULE>
NCCn1nc(C2CCN(Cc3ccccc3)C2)c2nccnc21 (stereo not drawn)

>  <TARGET OF ASSAY>
Plasmodium falciparum

>  <CLASS ASSIGNMENT>
satisfied

$$$$
>  <MOLECULE>
COCCO[C@@H]1C[C@H]2CN(C(=O)c3cccnc3)CCN2C1

>  <TARGET OF ASSAY>
Plasmodium falciparum

>  <CLASS ASSIGNMENT>
not satisfied

$$$$
>  <MOLECULE>
c1[nH]c(CC2CCCC2)nc1CN1CCCC2(CCOC2)C1 (stereo not drawn)

>  <TARGET OF ASSAY>
Plasmodium falciparum

>  <CLASS ASSIGNMENT>
satisfied

$$$$
>  <MOLECULE>
Cc1ncccc1OCC(=O)N1CCN[C@H]2CS(=O)(=O)C[C@H]21

>  <TARGET OF ASSAY>
Plasmodium falciparum

>  <CLASS ASSIGNMENT>
not satisfied

$$$$
>  <MOLECULE>
CS(=O)(=O)N1CCO[C@@H]2CN(Cc3ccncc3)C[C@@H]2C1

>  <TARGET OF ASSAY>
Plasmodium falciparum

>  <CLASS ASSIGNMENT>
satisfied

$$$$
>  <MOLECULE>
CCNC(=O)CCC(=O)NC(C)Cc1ccccc1Br (stereo not drawn)

>  <TARGET OF ASSAY>
Plasmodium falciparum

>  <CLASS ASSIGNMENT>
satisfied

$$$$
>  <MOLECULE>
COc1cc(OC)c(C2SCC(=O)Nc3n[nH]cc32)cc1OC (stereo not drawn)

>  <TARGET OF ASSAY>
Plasmodium falciparum

>  <CLASS ASSIGNMENT>
not satisfied

$$$$
>  <MOLECULE>
FC(F)(F)c1cc(C2CCNCC2)nc(-c2ccsc2)n1

>  <TARGET OF ASSAY>
Plasmodium falciparum

>  <CLASS ASSIGNMENT>
satisfied

$$$$

* * *

- Tested on: Plasmodium falciparum
- PROTOCOL DETAILS: Screen against P. falciparum Asexual Blood Stage (ABS), at 5uM
- Assay type: functional, Dd2
- CONDITION NOTES: tested at 5 uM
About 2,100 (3.2%) of roughly 65,000 compounds showed an effect of 50% or more. The median lay at about -52%. The sample as a whole holds a higher share of strong results than the screen did.
ASSAY METRIC: INHIBITION (%)

>  <MOLECULE>
CC[C@H]1CN2CC[C@H]1C[C@@H]2CNC(=O)c1ccco1

>  <VALUE REPORTED>
-29.4

$$$$
>  <MOLECULE>
CCS(=O)(=O)N1CC[C@H](OC)[C@H]2CN(Cc3ccncc3)C[C@H]21

>  <VALUE REPORTED>
-64.4

$$$$
>  <MOLECULE>
CCNc1ccnc(N2Cc3cnc(CC(C)C)nc3C2)n1

>  <VALUE REPORTED>
74.6

$$$$
>  <MOLECULE>
CCCN1CC2(CCN(c3ncc(F)cn3)CC2)CC1C(=O)O (centres undefined)

>  <VALUE REPORTED>
-31.5

$$$$
>  <MOLECULE>
CCN(CC)C[C@H]1CN2CC[C@H]1C[C@@H]2CNC(=O)c1ccco1

>  <VALUE REPORTED>
-97.7

$$$$
>  <MOLECULE>
CO[C@@H]1CCN(Cc2cccs2)[C@@H]2CN(Cc3ccncc3)C[C@@H]21

>  <VALUE REPORTED>
53.8

$$$$
>  <MOLECULE>
Cc1noc([C@]23COC[C@H]2CN(C(C)C)C3)n1

>  <VALUE REPORTED>
-38.3

$$$$
>  <MOLECULE>
Cc1c(C)n(CC(O)CN2CCC(C)CC2)c2c(Cl)cccc12 (centres undefined)

>  <VALUE REPORTED>
83

$$$$
>  <MOLECULE>
CCC(O)CN1CCN(C(=O)Cc2ccccc2Cl)CC1 (centres undefined)

>  <VALUE REPORTED>
-113

$$$$
>  <MOLECULE>
Cc1cc(C)c(N(CC(O)CNCc2ccccc2)S(C)(=O)=O)c(C)c1 (centres undefined)

>  <VALUE REPORTED>
70.4

$$$$
>  <MOLECULE>
CO[C@H]1CCN(Cc2cccc(C)n2)[C@@H]2CN(Cc3cccnc3)C[C@H]12

>  <VALUE REPORTED>
70.4

$$$$
>  <MOLECULE>
CCc1noc(CN2CCOC3(CCCC3)C2)n1

>  <VALUE REPORTED>
-159

$$$$
>  <MOLECULE>
Cc1ccc(CN(CCN(C)C)C(=O)Cc2cn3ccccc3n2)o1

>  <VALUE REPORTED>
-67.1

$$$$
>  <MOLECULE>
O=C(C1CC=CC1)N1CCC2(CC1)OCCO2

>  <VALUE REPORTED>
-69.1

$$$$

* * *

- Tested on: Plasmodium falciparum
- PROTOCOL DETAILS: Screen against P. falciparum Asexual Blood Stage (ABS), at 5uM
- Type: functional, Dd2
- CONDITION NOTES: tested at 5 uM
About 2,100 (3.2%) of roughly 65,000 compounds showed an effect of 50% or more. The median lay at about -52%. Many of the other results were omitted from the sample, so strong results are more common in it than they were.
Criterion: INHIBITION meeting or surpassing -20%. Met: label 1. Not met: label 0.

>  <COMPOUND>
O=c1cc(CN2CC[C@@H]3CC[C@H](C2)N3)c2cccc3c2n1CCC3

>  <CLASS ASSIGNMENT>
label 0

$$$$
>  <COMPOUND>
O=C(Cc1csc(-c2ncccn2)n1)N1CCN2CCCCC2C1 (stereo not drawn)

>  <CLASS ASSIGNMENT>
label 0

$$$$
>  <COMPOUND>
CCC(CC)(CN)NC(C)c1ccccc1 (stereo not drawn)

>  <CLASS ASSIGNMENT>
label 1

$$$$
>  <COMPOUND>
CN1CCCCC1c1ccc(-n2ccnc2)nc1 (stereo not drawn)

>  <CLASS ASSIGNMENT>
label 1

$$$$
>  <COMPOUND>
CC[C@H](C)[C@@H](CO)NC(C)Cc1ccc(C)cc1 (stereo partly drawn)

>  <CLASS ASSIGNMENT>
label 1

$$$$
>  <COMPOUND>
O=C1CSC(c2ccc3c(c2)OCO3)c2cn[nH]c2N1 (stereo not drawn)

>  <CLASS ASSIGNMENT>
label 1

$$$$
>  <COMPOUND>
COCc1cncc2c1CCN(Cc1cccnc1)C2

>  <CLASS ASSIGNMENT>
label 0

$$$$
>  <COMPOUND>
Cc1cnn(CC(C)NCc2ccc(C#N)cc2F)c1 (stereo not drawn)

>  <CLASS ASSIGNMENT>
label 0

$$$$
>  <COMPOUND>
O=C(CN1CCCC(c2ccn[nH]2)C1)Nc1nc2c(s1)CCC2 (stereo not drawn)

>  <CLASS ASSIGNMENT>
label 1

$$$$
>  <COMPOUND>
CN(C)C(=O)N1CCC2(C1)CN(c1cccnc1)C(=O)CN2C (stereo not drawn)

>  <CLASS ASSIGNMENT>
label 0

$$$$
>  <COMPOUND>
c1ccc(CO[C@@H]2CN(Cc3ccoc3)[C@@H]3COC[C@@H]32)nc1

>  <CLASS ASSIGNMENT>
label 0

$$$$
>  <COMPOUND>
Cc1ncc2c(c1CNC(=O)C1(C)CCCO1)CCNC2 (stereo not drawn)

>  <CLASS ASSIGNMENT>
label 0

$$$$
>  <COMPOUND>
CN1CCCCC1c1ncc2c(n1)CCN(CCCc1ccccc1)C2 (stereo not drawn)

>  <CLASS ASSIGNMENT>
label 1

$$$$

* * *

- Test system: Plasmodium falciparum
- PROTOCOL DETAILS: Screen against P. falciparum Asexual Blood Stage (ABS), at 5uM
- Assay type: functional, Dd2
- CONDITION NOTES: tested at 5 uM
About 2,100 (3.2%) of roughly 65,000 compounds showed an effect of 50% or more. The median lay at about -52%. The list comes from a sample in which strong results are over-represented; it also holds close analogues and randomly drawn compounds.
Response field class: string, computed from recorded INHIBITION by ranges low group: < -50%; middle group: ≥ -50% and < 70%; high group: ≥ 70%

>  <MOLECULE>
COc1ccc(NC(=O)CCN2CC=C(c3cnn(C)c3)CC2)cc1Cl

>  <CLASS ASSIGNMENT>
middle group

$$$$
>  <MOLECULE>
COCCN1CCCC12CCN(c1ncccn1)CC2

>  <CLASS ASSIGNMENT>
middle group

$$$$
>  <MOLECULE>
O=C(C1CCCC1)N1C[C@@H]2CCNC[C@@H]21

>  <CLASS ASSIGNMENT>
low group

$$$$
>  <MOLECULE>
CCC(CN1CCOCC1)n1cncc1-c1ccc2c(c1)CCN2CC (stereo not drawn)

>  <CLASS ASSIGNMENT>
high group

$$$$
>  <MOLECULE>
CN1CCN([C@H]2COC[C@@H]3CN(Cc4cccnc4)C[C@@H]32)CC1

>  <CLASS ASSIGNMENT>
middle group

$$$$
>  <MOLECULE>
COCCN1CCN(Cc2ccco2)Cc2ccc(C)nc21

>  <CLASS ASSIGNMENT>
low group

$$$$
>  <MOLECULE>
Cc1noc(C)c1CN1CCOCC12CCN(c1nccs1)CC2

>  <CLASS ASSIGNMENT>
low group

$$$$
>  <MOLECULE>
CN(C)CCN1CCN(Cc2cccs2)Cc2cccnc21

>  <CLASS ASSIGNMENT>
high group

$$$$
>  <MOLECULE>
C=Cc1cccc(CN2C[C@@H](CN(C)CC)[C@@H](CO)C2)c1

>  <CLASS ASSIGNMENT>
high group

$$$$
>  <MOLECULE>
Cc1cnn(CCNCC(O)c2ccc(C(F)(F)F)cc2)c1 (stereo not drawn)

>  <CLASS ASSIGNMENT>
high group

$$$$
>  <MOLECULE>
CN(C)C(=O)CN1CCO[C@H]2CN(c3ccccn3)C[C@H]21

>  <CLASS ASSIGNMENT>
low group

$$$$
>  <MOLECULE>
Cc1ccc2[nH]c(CN(C)Cc3n[nH]c4c3CCC4)nc2c1

>  <CLASS ASSIGNMENT>
high group

$$$$
>  <MOLECULE>
COc1ccc(NC(=O)CCN2CC=C(c3cnn(C)c3)CC2)c(C)c1

>  <CLASS ASSIGNMENT>
middle group

$$$$
>  <MOLECULE>
CN1CCCC(Cc2nccnc2Cl)CC1 (stereo not drawn)

>  <CLASS ASSIGNMENT>
middle group

$$$$
>  <MOLECULE>
Cc1ccc2nc(CN(C)Cc3n[nH]c4c3CCCCC4)[nH]c2c1C

>  <CLASS ASSIGNMENT>
high group

$$$$
>  <MOLECULE>
O=C(N[C@@H]1CN[C@@H]2CCCO[C@@H]21)c1cscn1

>  <CLASS ASSIGNMENT>
middle group

$$$$
>  <MOLECULE>
CC1CCC2(CC1)NC(=O)c1cc(Br)ccc1-n1nnnc12 (stereo not drawn)

>  <CLASS ASSIGNMENT>
low group

$$$$
